assay.target: serum sample IHUS#B09032311A20
assay.explanation: ECL displacement assay, variant competes with tagged SEQ ID NO:1
measurement.type: ECLU confirmatory assay (ECLU)

[
  {
    "binder": "Example 1C: (K83R) (SEQ ID NO: 25) (VHH) VHH: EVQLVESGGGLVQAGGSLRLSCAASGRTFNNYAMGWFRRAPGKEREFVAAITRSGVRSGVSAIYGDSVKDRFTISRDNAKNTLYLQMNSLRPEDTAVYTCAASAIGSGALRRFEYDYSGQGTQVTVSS",
    "measured.value": 6910
  },
  {
    "binder": "Example 1C: (A14P, K83R, Q108L) (SEQ ID NO: 27) (VHH) VHH: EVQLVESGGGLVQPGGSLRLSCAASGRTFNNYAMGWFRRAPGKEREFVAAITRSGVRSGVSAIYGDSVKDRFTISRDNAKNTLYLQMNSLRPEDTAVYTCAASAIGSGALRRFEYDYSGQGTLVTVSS",
    "measured.value": 628
  },
  {
    "binder": "Example 1C: (Q108L) (SEQ ID NO: 26) (VHH) VHH: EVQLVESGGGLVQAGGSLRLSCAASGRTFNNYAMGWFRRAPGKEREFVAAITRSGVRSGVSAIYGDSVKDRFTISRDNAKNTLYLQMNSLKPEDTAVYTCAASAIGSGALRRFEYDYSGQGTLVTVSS",
    "measured.value": 6990
  },
  {
    "binder": "Example 1C: (A14P, R39Q, K83R, T91Y, Q108L) (SEQ ID NO: 28) (VHH) VHH: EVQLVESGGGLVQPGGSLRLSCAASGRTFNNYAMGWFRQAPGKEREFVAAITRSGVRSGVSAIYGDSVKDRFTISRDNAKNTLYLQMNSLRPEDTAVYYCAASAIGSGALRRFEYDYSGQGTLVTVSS",
    "measured.value": 570
  }
]

a. Example 1C: (A14P) (SEQ ID NO: 24) (VHH) VHH: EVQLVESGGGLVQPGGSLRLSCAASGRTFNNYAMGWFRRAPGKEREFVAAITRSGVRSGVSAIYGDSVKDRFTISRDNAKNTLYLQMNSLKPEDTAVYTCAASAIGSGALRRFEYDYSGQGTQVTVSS
b. Example 1C: wildtype VHH (SEQ ID NO: 23) (VHH) VHH: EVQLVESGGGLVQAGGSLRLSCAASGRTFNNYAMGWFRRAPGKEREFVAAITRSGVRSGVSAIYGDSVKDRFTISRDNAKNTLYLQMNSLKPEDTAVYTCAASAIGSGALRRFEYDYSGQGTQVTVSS
QUERY: Of the two listed items, a and b , which carries the larger ECLU confirmatory assay figure? Return value: the label identifying the chosen record.
RESULT: b

Cited source for all entries: patent US20140205597A1
